Reference source for all entries: the supplement of paper PMC9732359

assay: protein stability index of a GFP-peptide fusion (yeast GPS) (PSI 1-4); higher = more stable; sorted into four equal gates, so the index is relative within each strain; details: doa10∆
Classification field: enter class 1 for protein stability index values not below 3, class 0 for values below it.

These solved cases illustrate the format of a correct answer.
Input Sequence	Label
RGYFITQEEVELPLEDF [RPB5]	class 1
SGSQNISEFDSFTDILK [RPN12]	class 1

Continue with the sequence presented below.
Task item: Kindly determine if protein stability index recorded for SPTINRANVYVGFLVQL [PRP8] is above or exactly 3.
Reply: class 0

* * *

assay: protein stability index of a GFP-peptide fusion (yeast GPS) (PSI 1-4); higher = more stable; sorted into four equal gates, so the index is relative within each strain; details: ubr1∆
Classification field: enter true (1) for protein stability index values not below 3, false (0) for values below it.

These solved cases illustrate the format of a correct answer.
Input Sequence	Label
DNSFNELTDNMSDFVPI [MCD1]	true (1)
RALFETKLNLHCVIEDD [RRI1]	false (0)
TIVNDSNYDWLFQLLNA [RPN9]	false (0)
GTYIQERNPTQRPQRRY [RPS10A]	true (1)
VKDEAFDDLLKPVYKGK [RET1]	true (1)

Task item: Kindly determine if protein stability index recorded for QVRNQVFMLDTKRLGTP [RGR1] is above or exactly 3.
Reply: false (0)

Task item: Kindly determine if protein stability index recorded for LSTDATSADLKSKAEEL [UBP6] is above or exactly 3.
Reply: true (1)

Task item: Kindly determine if protein stability index recorded for WKRQISYFLKLLGNCYS [SRB8] is above or exactly 3.
Reply: false (0)

* * *

test: protein stability index of a GFP-peptide fusion (yeast GPS) (PSI 1-4); higher = more stable; sorted into four equal gates, so the index is relative within each strain; conditions: ubr1∆
Quantity Measured: protein stability index
Numbers only.

Input Sequence	protein stability index
IGKDTFVTRKSRKRAKK [PRP8]	3.25
LTADYDALDIANRIGYI [RPL25]	3.43
VKALRNVPGVETANVAS [RPL4A]	3.01
FRENMSKEETVDFIKHS [PRE3]	3.24
KSMELFYDIRSLLERHI [YJL039C/NUP192]	3.07
TTALLKDEEIEKLLQQD [MED8]	3.59
THQSPPPPPQQSQPIAN [SNF5]	2.94
ELEEQESESERKYDLFQ [SMC2]	3.29
QIIVTDGKLEPSTRSNF [YJL039C/NUP192]	3.32
SQVFGVARIYASFNDTF [RPS14A]	2.38

Lab note: each sequence below needs its protein stability index filled in.
1. DLSRNGRNGSNGNDESS [NUT1]
2. SSHAKGIVLEKLGIESK [RPS23A]
3. EIEDGQDGGVTPYSNES [RPO21]
4. NLEIPAYEFDGDKVIVG [RIP1]
5. ILDGQDVEENRSEFIES [YJR042W/NUP85]
6. LDLAGPLLAQLFKTLFK [RPB2]
7. FGKTTANLPANSSTSPA [YLR335W/NUP2]

Reply:
[3.14, 3.17, 3.22, 2.72, 3.27, 1.18, 3.12]

Lab note: each sequence below needs its protein stability index filled in.
1. TKEKVNGASVPINLHPS [RPL26A]
2. ENYSAMIFETIVDGKLK [FAS1]
3. SKKLNLKIHQSHLVVPY [YMR129W/POM152]
4. KLDQDDEIYIPINGNEA [CSI1]
5. LRRLEILVPDLYHLVIM [ECM29]
6. TEYRGTLVSTDNYFNLQ [SMX3]

Reply:
[2.93, 3.09, 2.88, 3.45, 1.61, 2.23]

Lab note: each sequence below needs its protein stability index filled in.
1. SQVDPITLFVLVSVVEA [FAS2]
2. RMFEKNVMLNIYPRTVI [SKI6]
3. KNNLLIPDLSIQNDIYL [RPN12]
4. KGLETIDNGAESSENEA [RPC53]

Reply:
[1.45, 2.24, 2.92, 3.12]

Lab note: each sequence below needs its protein stability index filled in.
1. RIDAFNALEHKYFTESD [SSN3]
2. NLETLVTTKDDLSGADI [RPT2]
3. LTEQIRELREVIELPLK [RPT4]

Reply:
3.05
3.34
3.06
